Molecular target: T1, hBCMA (human BCMA) (Homo sapiens, UniProt Q02223)
T1 sequence (Q02223 1-184): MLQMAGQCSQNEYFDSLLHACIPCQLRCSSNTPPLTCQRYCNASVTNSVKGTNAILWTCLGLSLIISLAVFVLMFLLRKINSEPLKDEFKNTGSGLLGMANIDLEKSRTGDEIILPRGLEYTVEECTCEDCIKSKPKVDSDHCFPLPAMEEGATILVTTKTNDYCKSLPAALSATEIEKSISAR
Experiment: Kinetics and affinity of hBCMA/human IgG interactions by SPR (Bio-Rad Proteon XPR36)
Format: binding
Conditions: huBCMA, 37° C.
Metric: kd (1/s) huBCMA @37° C.
Could you kindly put the unit after your number?

Recorded results for 3 molecules are shown here.
Molecule: L3.PY/L1.PS/H2.QR: anti-BCMA antibody (antibody, V domains shown) VH: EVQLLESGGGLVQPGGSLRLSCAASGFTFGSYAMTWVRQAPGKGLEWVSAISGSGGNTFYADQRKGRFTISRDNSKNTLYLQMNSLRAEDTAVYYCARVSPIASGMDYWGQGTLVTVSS VL: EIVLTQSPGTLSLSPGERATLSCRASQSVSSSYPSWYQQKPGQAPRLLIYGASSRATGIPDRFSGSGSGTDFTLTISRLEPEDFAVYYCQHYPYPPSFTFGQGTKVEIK
kd (1/s) huBCMA @37° C.: 0.103 s⁻¹

Molecule: L3.PY/L1.AH/H3.YA: anti-BCMA antibody (antibody, V domains shown) VH: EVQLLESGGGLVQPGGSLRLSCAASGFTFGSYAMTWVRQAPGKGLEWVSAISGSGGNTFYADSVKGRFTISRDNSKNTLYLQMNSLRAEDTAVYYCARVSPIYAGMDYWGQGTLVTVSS VL: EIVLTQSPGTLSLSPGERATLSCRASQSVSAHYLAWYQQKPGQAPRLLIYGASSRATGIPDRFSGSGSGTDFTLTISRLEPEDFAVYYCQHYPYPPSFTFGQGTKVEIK
kd (1/s) huBCMA @37° C.: 0.0015 s⁻¹

Molecule: L3.PY/L3.KF/H2.LT: anti-BCMA antibody (antibody, V domains shown) VH: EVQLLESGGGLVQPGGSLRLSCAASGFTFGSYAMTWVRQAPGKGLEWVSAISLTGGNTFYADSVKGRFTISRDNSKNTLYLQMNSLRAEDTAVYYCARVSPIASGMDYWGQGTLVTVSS VL: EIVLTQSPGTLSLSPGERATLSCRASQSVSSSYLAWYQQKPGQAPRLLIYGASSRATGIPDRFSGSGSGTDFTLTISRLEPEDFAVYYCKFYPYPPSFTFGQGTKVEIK
kd (1/s) huBCMA @37° C.: 0.00191 s⁻¹

Proceed to the following item.
Value of kd (1/s) huBCMA @37° C. reported for the molecule L3.PY/L1.PS/H2.DY: anti-BCMA antibody (antibody, V domains shown) VH: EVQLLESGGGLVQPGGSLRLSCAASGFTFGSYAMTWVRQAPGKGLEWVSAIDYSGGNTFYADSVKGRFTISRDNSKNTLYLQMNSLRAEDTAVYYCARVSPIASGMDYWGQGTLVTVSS VL: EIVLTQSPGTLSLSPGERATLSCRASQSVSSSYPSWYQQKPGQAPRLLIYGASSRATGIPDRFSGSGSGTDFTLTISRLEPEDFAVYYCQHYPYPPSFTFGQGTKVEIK is 0.00361 s⁻¹
